experiment: basal RPMI8226 mitochondrial membrane potential changes, profiling panel, cell-based, JC-1 fluorescence, 24 h, 100 nL compound (AID 1169); details: RPMI8226 myeloma, JC-1 mitochondrial potential fluorescence, higher = more signal; further: test concentration not given here
Would you mind labelling by z-score? At or over -0.2 is condition met, under is condition not met.

Example entries begin here.
>>> group_label("COCCOC(=O)N1C(=O)[C@@]2(c3cc(C#CCNC(N)=O)ccc31)[C@H](C(=O)NC[C@H](O)c1ccccc1)[C@H]1C(=O)O[C@H](c3ccccc3)[C@H](c3ccccc3)N1[C@@H]2c1ccc(O)cc1")
"condition met"
>>> group_label("C=C(COC)C(=O)CC[C@H](OC(=O)c1cccnc1)c1cccc(OCCO)c1")
"condition met"
>>> group_label("C[N+](C)(C)CCCCNC(=O)[C@@H]1C[C@@H]2C(=O)NCC(=O)N2[C@@H]1c1cccc(OCCO)c1")
"condition not met"

Is z-score at least -0.2? Consider `C=CCNC(=O)[C@@H]1[C@H]2C(=O)O[C@H](c3ccccc3)[C@H](c3ccccc3)N2[C@H](c2ccc(O)cc2)[C@@]12C(=O)Nc1ccc(C#Cc3ccc(OC)cc3)cc12`
condition not met

Then `CC(C)(C)OC(=O)CC[C@@]12N=C(c3ccc(OCCCO)cc3)O[C@@H]1c1ccccc1CN(Cc1ccccc1)C2=O` ?
condition not met

Then CC(C)C[C@@H]1NC(=O)[C@@]23C(=O)N[C@@H](Cc4ccccc4)C2[C@H](C)[C@@]2(C)O[C@H]2C3/C=C/C/C=C\CNC(=O)[C@H](Cc2ccccc2)NC1=O (stereo partly specified) ?
condition met

====

system: PRMT1 (protein arginine N-methyltransferase 1); assay: PRMT1 binders on small-molecule microarrays, primary screen, biochemical, small-molecule microarray, 635 nm fluorescence (AID 1088); settings: small-molecule microarray binding, higher = more signal;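 further: binding of Prmt1 protein to compounds spotted on small-molecule microarray slides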
PROPERTY NAME: composite z-score
Write the value as a bare number.

# annotated cases, reported composite z-score shown
>>> observed("CCOC(=O)C[C@H]1[C@H](OC(=O)Cc2ccc3c(c2)OCO3)[C@@H](NC(=O)c2ccc3ccccc3c2)c2cc(OCCCO)ccc2N1C(=O)c1ccc2ccccc2n1")
0.144
>>> observed("C#CCOc1ccc(C[C@H]2C(=O)O[C@H](Cc3ccccc3)[C@H](/C=C/C3CC3)N2CC#C)cc1")
-0.746
>>> observed("O=C(NCc1ccccc1)[C@@H]1c2ccccc2C(=O)N(Cc2ccccc2Cl)[C@H]1c1ccc(CO)cc1")
1.41

Need composite z-score, item `C=CCN1C(=O)[C@@]2(O[C@@H](CCn3cc(CCO)nn3)[C@H]([Si](C)(C)c3ccc(OC)cc3)[C@H]2C)c2cc(NC(=O)c3ccc(OC)cc3)ccc21`
1.49

Then `C=CCNC(=O)[C@H]1[C@@H]2C(=O)O[C@@H](c3ccccc3)[C@@H](c3ccccc3)N2[C@@H](c2ccccc2OCCO)[C@]12C(=O)N(C(=O)OCCOC)c1ccc(C#CCCO)cc12` ?
1.43

Then `CCCNC(=O)[C@@H]1c2ccccc2C(=O)N(Cc2cc(C(F)(F)F)cc(C(F)(F)F)c2)[C@H]1c1ccc(CO)cc1` ?
1.09

====

assay: A549 cell viability effects, profiling panel, calcein-AM fluorescence, 48 h, basal (AID 1162); details: higher = more signal; further: test concentration not given here
Would you mind labelling by z-score? At or over 0.05 is true (1), under is false (0).

>>> group_label("C=C[C@H](OC)[C@@H](OC(=O)Nc1ccc(OC)cc1)c1ccc(OC)c(O)c1")
"true (1)"
>>> group_label("C#CCOc1ccc(C[C@H]2C(=O)O[C@H](Cc3ccccc3)[C@H](/C=C/C3CC3)N2CC#C)cc1")
"false (0)"
>>> group_label("CCCCC(=C=CC[C@H](O)c1cccc(OCCO)c1)CCO")
"true (1)"
>>> group_label("NCCCCCCNC(=O)[C@@H]1C[C@@H]2C(=O)N[C@@H](Cc3ccccc3)C(=O)N2[C@@H]1c1ccc(O)cc1")
"true (1)"
>>> group_label("C=CCC(OC(C)=O)[C@@H]1[C@@H](N(Cc2cc3ccccc3o2)C(=O)c2ccc(-c3ccccc3)cc2)c2cc(OCCCO)ccc2N1C(=O)c1ccc(-c2ccccc2)cc1 (some centres not stated)")
"true (1)"

Is z-score at least 0.05? Consider `C=CCN1C(=O)[C@@]2(O[C@@H](CCn3cc(CCO)nn3)[C@H]([Si](C)(C)c3ccc(OC)cc3)[C@H]2C)c2cc(N3C(=O)c4cccc5cccc3c45)ccc21`
false (0)

Then `Cc1ccc(N2C(=O)c3ccccc3[C@](C)(C(=O)NCC(F)(F)F)[C@@H]2c2ccc(CO)cc2)nc1` ?
true (1)

====

biological target: Dickkopf-related protein 1 (Homo sapiens); experiment: DKK1 binders on small-molecule microarrays, primary screen, biochemical, small-molecule microarray, 635 nm fluorescence scan (AID 1106); settings: DKK1 binding, higher = more signal;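 further: score merges emission near 667 nm with signal to noise over three replicate slides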
Overview of reported composite z-score across a group of compounds:
Write the value as a bare number.

# annotated cases, reported composite z-score shown
>>> observed("CCOC(=O)C[C@H]1[C@H](OC(=O)c2ccc(-c3ccccc3)cc2)[C@@H](NC(=O)C2CCCCC2)c2cc(OCCCO)ccc2N1C(=O)c1ccc2ccccc2n1")
1.12
>>> observed("CC(C)C(=C=CC[C@@H](O)c1ccc(CO)o1)CCO")
0.39
>>> observed("C=C(/C(=C/C[C@H](OC(C)=O)c1cccc(OCCO)c1)c1cc(C(=O)OC)ccc1OC)C(C)C")
-0.316
>>> observed("CC(C)C(CO)N1C(=O)[C@@H]2C3C(=O)OCCC/C=C\\[C@H]3OC23C=CCN(C(C)C)C(=O)[C@@H]13 (some centres not stated)")
-0.868
>>> observed("CC(C)C[C@@H]1NC(=O)[C@@]23C(=O)N[C@@H](Cc4ccccc4)C2[C@H](C)[C@@]2(C)O[C@H]2C3/C=C/C/C=C\\CNC(=O)[C@H](Cc2ccccc2)NC1=O (some centres not stated)")
0.335

What is its composite z-score for Dickkopf-related protein 1 (Homo sapiens)? Entry: `Cc1ccc(S[C@]2(C(=O)NCCN3CCOCC3)CC(=O)N(Cc3cc(C(F)(F)F)cc(C(F)(F)F)c3)[C@@H]2c2ccc(CO)cc2)cc1`
-1.05

Then `C=CCNC(=O)[C@H]1[C@@H]2C(=O)O[C@@H](c3ccccc3)[C@@H](c3ccccc3)N2[C@@H](c2ccccc2OCCO)[C@]12C(=O)N(C(=O)OCCOC)c1ccc(C#CCCO)cc12` ?
0.983

====

molecular target: Albumin (Bos taurus) (UniProt P02769); test: bovine serum albumin binders on microarray, profiling panel, artefact control for SMM control protein annotation, biochemical, small-molecule microarray, Alexa647 label, 635/667 nm fluorescence (AID 1118); conditions: BSA-A647 binding, fluorescence 635 nm, higher = more signal;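 further: score merges 667 nm emission intensity and signal-to-noise per printed compound spot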
Sequence (P02769 whole entry, looked up): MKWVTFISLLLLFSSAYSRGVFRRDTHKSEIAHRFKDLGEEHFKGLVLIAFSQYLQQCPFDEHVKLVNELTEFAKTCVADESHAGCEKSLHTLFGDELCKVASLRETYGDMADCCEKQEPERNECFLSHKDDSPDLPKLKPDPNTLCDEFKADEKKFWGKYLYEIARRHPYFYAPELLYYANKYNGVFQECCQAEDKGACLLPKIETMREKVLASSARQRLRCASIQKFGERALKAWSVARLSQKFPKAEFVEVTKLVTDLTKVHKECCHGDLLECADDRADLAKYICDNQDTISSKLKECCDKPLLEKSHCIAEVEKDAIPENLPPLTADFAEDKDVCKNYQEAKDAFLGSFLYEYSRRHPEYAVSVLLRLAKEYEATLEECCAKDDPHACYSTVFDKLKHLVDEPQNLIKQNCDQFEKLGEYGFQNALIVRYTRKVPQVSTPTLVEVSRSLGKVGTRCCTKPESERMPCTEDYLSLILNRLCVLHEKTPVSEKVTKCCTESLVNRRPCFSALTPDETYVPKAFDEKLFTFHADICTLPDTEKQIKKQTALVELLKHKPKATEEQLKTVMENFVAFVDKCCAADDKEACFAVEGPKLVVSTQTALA
Overview of reported composite z-score across a group of molecules:
Write the value as a bare number.

>>> observed("C=C(C(=O)CC[C@H](OC(C)=O)c1ccc(CO)o1)C(C)C")
-0.348
>>> observed("C=CCNC(=O)[C@@H]1[C@H]2C(=O)O[C@H](c3ccccc3)[C@H](c3ccccc3)N2[C@H](c2ccc(O)cc2)[C@@]12C(=O)N(C(=O)OCCOC)c1ccc(C#Cc3ccc(OC)cc3)cc12")
-0.0706

Switching to the query record.
Need composite z-score, item `COc1ccc([Si](C)(C)[C@@H]2[C@@H](CC(=O)N3CCC[C@H]3CO)O[C@]3(C(=O)N(Cc4ccc(I)cc4)c4ccccc43)[C@H]2C)cc1`
-1.32

====

Overview of reported composite z-score across a group of compounds:
experiment: small-molecule binders of probe aNOTCH3, primary screen, biochemical, small-molecule microarray, 635/667 nm fluorescence (AID 1120); details: higher = more signal;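 further: probe is a biotin-tagged antibody raised against NOTCH3 rather than NOTCH3 protein; score merges spot fluorescence near 667 nm with spot signal to noise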
Write the value as a bare number.

# annotated cases, reported composite z-score shown
>>> observed("C#CCOc1ccc(C[C@H]2C(=O)O[C@H](Cc3ccccc3)[C@H](/C=C/C3CC3)N2CC#C)cc1")
-0.165
>>> observed("O=C1c2ccccc2[C@](Cc2ccccc2I)(C(=O)O)[C@H](c2ccc(CO)cc2)N1Cc1ccccc1Cl")
-0.014
>>> observed("CC1CC/C=C\\[C@H]2OC34C=CCN(C(C)C)C(=O)[C@H]3N(C(CO)C(C)C)C(=O)[C@@H]4C2C(=O)O1 (stereo partly drawn)")
-0.15
>>> observed("C=C(C(=O)CC[C@H](OC(C)=O)c1ccc(CO)o1)C(C)C")
-0.0264
>>> observed("CO[C@H]1O[C@H](CO)[C@@H](OC(=O)Nc2ccccc2)[C@H](OC(=O)Nc2ccccc2-c2ccccc2)[C@@H]1OC(=O)Nc1ccccc1-c1ccccc1")
0.224

Need composite z-score, item `C[N+](C)(C)CCCCNC(=O)[C@@H]1C[C@@H]2C(=O)NCC(=O)N2[C@@H]1c1cccc(OCCO)c1`
0.0297

Then `[N-]=[N+]=Nc1ccccc1[C@H]1OC(c2ccc(OCCCO)cc2)=N[C@@]1(Cc1ccccc1)C(N)=O` ?
0.416

Then C=CCC(OC(C)=O)[C@@H]1[C@@H](N(Cc2ccc(-c3ccccc3)cc2)C(=O)c2ccc(-c3ccccc3)cc2)c2cc(OCCCO)ccc2N1C(=O)c1ccc(-c2ccccc2)cc1 (stereo partly drawn) ?
0.11

Then `C=C(CCCC)/C(=C/C[C@@H](OC(=O)c1ccncc1)c1ccc(OCCO)cc1)c1cnc2ccccc2c1` ?
0.135

Then `C=CC[C@]1(C(=O)N(C)C)N=C(c2ccc(OCCCO)cc2)O[C@H]1c1ccccc1CN=[N+]=[N-]` ?
-0.014

Then NC(=O)N1C(=O)C2C(C1=O)C1C=C(c3ccc(CO)cc3)C2C(C2CC2)N1Cc1cc2c(cc1Br)OCO2 (stereo not drawn) ?
-0.0377

Then CC(C)C[C@@H]1NC(=O)[C@@]23C(=O)N[C@@H](Cc4ccccc4)C2[C@H](C)[C@@]2(C)O[C@H]2C3/C=C/CC/C=C/CNC(=O)[C@@H](C)NC1=O (stereo partly drawn) ?
0.0426

Then `COC(=O)c1c2oc(c1C(=O)OC)C(=O)N[C@@H](C(C)C)Cn1nncc1C1(CCCCC1)NC(=O)N[C@H](CO)CC2` ?
-0.126

Then `NC(=O)NCC#Cc1ccc2c(c1)[C@]1(C(=O)N2)[C@H](c2ccc(OCCO)cc2)N2[C@H](c3ccccc3)[C@H](c3ccccc3)OC(=O)[C@H]2[C@@H]1C(=O)Nc1nc2ccccc2s1` ?
-0.132

Then `O=C1O[C@@H](c2ccccc2)[C@@H](c2ccccc2)N2[C@@H](c3ccc(OCCO)cc3)[C@]3(C(=O)Nc4ccc(C#CC5(O)CCCCCC5)cc43)[C@@H](C(=O)NC[C@H](O)c3ccccc3)[C@H]12` ?
0.158

Then `COc1ccc([Si](C)(C)[C@@H]2[C@@H](CCn3cc(CCO)nn3)O[C@]3(C(=O)N(Cc4ccc(N5C(=O)c6cccc7cccc5c67)cc4)c4ccccc43)[C@H]2C)cc1` ?
0.102

Then `Cc1ccc(S[C@]2(C(=O)NCC(C)C)CC(=O)N(C(C)C)[C@@H]2c2ccc(CO)cc2)cc1` ?
-0.255

Then `COc1ccc([Si](C)(C)[C@@H]2[C@@H](CC(=O)N3CCC[C@H]3CO)O[C@]3(C(=O)N(Cc4ccc(I)cc4)c4ccccc43)[C@H]2C)cc1` ?
-0.0328

Then CCN(CC)c1ccc(N2CC=CC34O[C@@H]5C=CCOC(=O)[C@@H]5[C@H]3C(=O)N(C(C)CO)[C@@H]4C2=O)cc1 (stereo partly drawn) ?
-0.213

Then C=CCC(OC(C)=O)[C@@H]1[C@@H](N(Cc2cc3ccccc3o2)C(=O)c2ccc(-c3ccccc3)cc2)c2cc(OCCCO)ccc2N1C(=O)c1ccc(-c2ccccc2)cc1 (stereo partly drawn) ?
0.061

Then `CC(C)(C)OC(=O)CC[C@]1(C(=O)NCc2ccccc2)N=C(c2ccc(OCCCO)cc2)O[C@H]1c1ccccc1N=[N+]=[N-]` ?
0.197

Hey, just so you know, these numbers are from PubChem BioAssay.
